assay_name: calcium activation in Ga16-expressing cells, counter-screen for TAAR1 antagonist project, cell-based, fluorescence (AID 651953);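 further: 0% = vehicle wells and 100% = saturating stimulus response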
measurement_setup: agonist counterscreen, at 3 µM, hits give high values
In all, about 2,400 compounds went through this assay and about 430 (18%) were called active. A selection follows.
Property: activation; scope: individual molecules

molecule: Cc1ccc2c(c1)N(CC(=O)NCCc1ccc(Cl)cc1)C(=O)c1cccnc1O2
activation, %: 8.82

molecule: Nc1nonc1-n1nnc(C(=O)N/N=C/c2c[nH]c3ccccc23)c1-c1ccccc1
activation, %: 6.4

molecule: Cc1nn(-c2ccccc2)c(C)c1NC(=O)COC(=O)c1cc(Cl)ccc1O
activation, %: 11.4

molecule: CCc1ccc2c(c1)NC(=O)C2(C)Cc1ccc(OC(F)(F)F)cc1 (stereo not given)
activation, %: 14.4

molecule: COC(=O)c1sccc1NC(=O)c1cc(OC)c(OC)c(OC)c1
activation, %: 5.58

---

assay_name: calcium activation in Ga16-expressing cells, counter-screen for TAAR1 antagonist project, cell-based, fluorescence (AID 651953);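 further: 0% = vehicle wells and 100% = saturating stimulus response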
measurement_setup: agonist counterscreen, at 3 µM, hits give high values
About 430 (18%) of roughly 2,400 compounds were called active. A selection follows.
# binarize activation: threshold 8% inclusive, high side yes, low side no

compound: COc1ccc(-c2cc(C(=O)N(C)Cc3ccc(OC)c(OC)c3OC)c3ccccc3n2)cc1OC
class_name: no
//
compound: COc1ccc(Cl)cc1NC(=O)CCS(=O)(=O)c1cc2c(cc1C)NC(=O)CO2
class_name: yes
//
compound: CSc1ncnc2c1ncn2CC(=O)C1CCC2C3CCC4=CC(=O)CCC4(C)C3CCC12C (stereo not given)
class_name: yes
//
compound: Oc1ccccc1N1CCN(c2ncnc3sc(-c4ccccc4)cc23)CC1
class_name: no
//
compound: O=C(N/N=C/c1ccc(OC(=O)c2ccccc2Cl)cc1)c1ccc(O)cc1
class_name: yes
//
compound: C/C(=N\Nc1ncc(Cl)cc1Cl)c1ccc(S(=O)(=O)NCc2ccco2)cc1
class_name: no
//
compound: CCOc1ccc(NC(=O)N2CC=C(n3c(=O)[nH]c4ccccc43)CC2)cc1
class_name: yes
//
compound: CC(=O)N1CCN(C(=O)c2cc(-c3ccc(Cl)s3)nc3ccccc23)CC1
class_name: yes
//
compound: COc1ccc(-c2cc(C(=O)N(C)Cc3ccccc3)c3ccccc3n2)cc1
class_name: no
//
compound: COc1ccc(NC(=O)C2CCCN(S(=O)(=O)c3cccc4cccnc34)C2)cc1OC (stereo not given)
class_name: no
//
compound: COc1ccc(NC(=O)c2cc(-c3ccc(C)o3)nc3ccccc23)cc1
class_name: yes
//
compound: O=C(OCC(=O)N(CCc1ccccc1)Cc1ccccc1)c1ccccc1[N+](=O)[O-]
class_name: yes
//
compound: O=C(O)c1ccc(NC(=O)c2cn(-c3ccccc3)nc2-c2ccc(Cl)cc2)cc1
class_name: no

---

assay_name: calcium activation in Ga16-expressing cells, counter-screen for TAAR1 antagonist project, cell-based, fluorescence (AID 651953);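 further: 0% = vehicle wells and 100% = saturating stimulus response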
measurement_setup: agonist counterscreen, at 3 µM
The campaign covered roughly 2,400 compounds. About 430 (18%) were called active. No stated cut-off is given here; in the data, active means activation above about 12%; inactive means the rest. A selection follows.
Outcome codes: Y for active, N for inactive

molecule: COC(=O)Cc1nnn2c1[C@H](C)[C@H](c1ccccc1[N+](=O)[O-])OCC2
class_name: N
//
molecule: CC(C)(C)OC(=O)NCCCCCNC(=O)c1nc[nH]c1C(=O)NCc1ccccc1
class_name: N
//
molecule: CN(c1ccccc1)S(=O)(=O)c1cc(C(=O)Nc2nc3ccccc3[nH]2)ccc1Cl
class_name: N
//
molecule: CSCCC(NC(=O)COc1ccccc1)C(=O)OCCOc1ccc(Br)cc1 (stereo not given)
class_name: N
//
molecule: COc1ccc(C(=O)Nc2ccccc2C(=O)N/N=C/c2ccc(O)c(OC)c2)cc1
class_name: N
//
molecule: CSc1nc(-c2ccccc2)nc(C(Cl)Cl)n1
class_name: N
//
molecule: O=C(NCC1CCCO1)c1cc2c([nH]c3ccccc32)c(-c2ccc(F)cc2)n1 (stereo not given)
class_name: N
//
molecule: O=C(NCc1ccc2c(c1)OCO2)c1c(-c2ccsc2)sc2ccccc12
class_name: N
//
molecule: O=S1(=O)c2c(cccc2N2CCCCC2)O[C@H](COCc2ccccc2)CN1C1CC1
class_name: N
//
molecule: Cc1cccc(NC(=O)c2ccc(COc3ccccc3[N+](=O)[O-])o2)n1
class_name: N
//
molecule: CSC(=S)N/N=C/c1c[nH]c2ccccc12
class_name: N
//
molecule: COc1ccc(OC)c2[nH]c(=O)c(CCNC(=O)C(=O)c3c[nH]c4ccccc34)cc12
class_name: N
//
molecule: COc1ccc(CCNC(=O)C(=O)NCC2OCCN2S(=O)(=O)c2ccc(OC)c(C)c2)cc1 (stereo not given)
class_name: N
//
molecule: Cc1ccc(NC(=O)c2ccc(CSc3ncnc4nc[nH]c34)cc2)c(C)c1
class_name: N
//
molecule: C[C@H](O)[C@@H]1C(=O)N2CCc3c([nH]c4c(-c5ccc6c(c5)OCO6)cccc34)[C@@H]2C[C@@H]1N(C)C(=O)c1ccco1
class_name: N
//
molecule: O=C(Nc1ccccc1-c1nnn(CC(=O)N2CCN(c3ccccc3)CC2)n1)c1cccs1
class_name: N
//
molecule: CC(=O)c1ccccc1OCc1ccc(C(=O)c2ccccc2)cc1
class_name: N
//
molecule: O=C1c2ccccc2C(=O)N1CCC#Cc1ccc2cc(C3(O)CCCCC3)oc(=O)c2c1
class_name: Y
//
molecule: Fc1ccc(/C=N/Nc2nc(-c3cccnc3)nc3ccccc23)cc1
class_name: N
//
molecule: Oc1ccc(/C=N/Nc2nc(-c3ccccc3F)nc3ccccc23)c(O)c1
class_name: Y
//
molecule: Cc1ccccc1NC(=O)Cc1nc(COC(=O)C(C)(C)Oc2ccc(Cl)cc2)cs1
class_name: N
//
molecule: O=C(NCCN1CCOCC1)c1ccc(/C=C2\Sc3ccccc3N(Cc3ccc(F)cc3)C2=O)cc1
class_name: N
//
molecule: O=C(NCCN1CCOCC1)c1ccccc1N1C(=O)[C@@H]2Cc3c([nH]c4ccccc34)C(c3cccc(Cl)c3)N2C1=O (stereo not given in full)
class_name: N
//
molecule: CC(=O)Nc1ccc(NC(=O)COC(=O)C2CCC(C(C)(C)C)CC2)cc1 (stereo not given)
class_name: Y
//
molecule: COc1ccc(C2=NOC(Cn3nc(C(=O)NCc4ccc5c(c4)OCO5)cc3-c3ccccc3)C2)cc1 (stereo not given)
class_name: N
//
molecule: COC(=O)Cc1nnn2c1[C@H](C)[C@H](c1ccccc1Br)OCC2
class_name: N
//
molecule: CSCCC(NC(=O)COc1ccccc1)C(=O)OCC(=O)c1cc2ccccc2o1 (stereo not given)
class_name: N
//
molecule: CC(C)Oc1cc(F)ccc1-c1cc(C(=O)Nc2ccc(F)cc2)[nH]n1
class_name: N
//
molecule: O=S(=O)(c1cccs1)N1CCCc2nc(-c3ccc(Br)cc3)ccc21
class_name: N
//
molecule: CCOC(=O)C1C(c2ccc(OC)c(OC)c2)c2c([nH][nH]c2=O)CC1(C)O (stereo not given)
class_name: N
//
molecule: CCN1CCc2c(C#N)c(NCc3ccccc3)nc(NCCO)c2C1
class_name: N
//
molecule: COc1cc(SC#N)ccc1N=Cc1c(C)[nH]n(-c2ccc(C)cc2)c1=O
class_name: N
//
molecule: COc1ccc(C(=O)Oc2ccc(-c3nnco3)cc2)cc1S(=O)(=O)N1CCOCC1
class_name: N
//
molecule: CCOc1ccc(N2CC(C(=O)N/N=C/c3sccc3C)CC2=O)cc1 (stereo not given)
class_name: N
//
molecule: COc1ccc(CCNC2=C(Cl)C(=O)N(Cc3ccccc3)C2=O)cc1OC
class_name: N
//
molecule: C=CCC[C@@H](Cc1ccc(F)cc1)C(=O)O[C@H](CNC(=O)[C@H](CC=C)CC(=O)N(CCO)Cc1ccccc1)c1ccccc1
class_name: N
//
molecule: CCCCNc1c(-c2cccc(Sc3ccc(OC)cc3)c2)nc2ccccn12
class_name: N
//
molecule: C[C@H](NC(=O)c1nc[nH]c1C(=O)NCC(=O)OC(C)(C)C)C(=O)OCc1ccccc1
class_name: N
//
molecule: COc1ccc(-c2cc(C(=O)N(C)CC(=O)Nc3ccccc3Cl)c3ccccc3n2)cc1OC
class_name: N
//
molecule: COc1ccc(C(=O)Nc2cccc(NC(=O)c3ccc(OC)cc3OC)n2)c(OC)c1
class_name: N
